Measurement description: Quantitative High-Throughput drug screen in 47 multiple myeloma cell lines against the NCATS MIPE library collection: JIM1_ECACC cell viability assay (AID 1918964)
Condition notes: JIM1 myeloma viability, CellTiter-Glo ATP luminescence, 48 h; series mostly up to 45.8 µM
Inconclusive results are not listed. Activity calls are given as the source filed them. Calls follow the shape of the dose curve; as a rule, active = well fitted cell-killing curve with a large enough effect; inconclusive = small, poorly fitted or top-dose-only effect, or effect the other way; inactive = no such curve, though single readings can be large or run the other way.
Mark one answer only. Choices: label 1 = active, label 0 = inactive

Exercise: Could you check what this test reported for `O=C(CCCCCCC(=O)Nc1cccnc1)NO` ?
Solution: label 1

Exercise: State the result this test recorded for `CCCNS(=O)(=O)Nc1ncnc(OCCOc2ncc(Br)cn2)c1-c1ccc(Br)cc1` .
Solution: label 0

Exercise: Kindly provide the recorded test outcome for the following compound: `C=C(C)[C@@H]1CC[C@]2(C)CC[C@]3(C)[C@H](CC[C@@H]4[C@@]5(C)CC[C@H](O)C(C)(C)[C@H]5CC[C@]43C)[C@@H]12`
Solution: label 0

Exercise: Query: recorded result category for `O=C(CN1C(=O)C2(CCCC2)NC[C@H]1c1cc(F)cc(F)c1)Nc1ccc2c(c1)C[C@@]1(C2)C(=O)Nc2ncccc21` in this test
Solution: label 1

Exercise: What was the test verdict on `CCNC(=O)c1cc2c(-c3cc(OCCN4CCCC4)c(Cl)cc3Cl)nc(N)nc2s1` ?
Solution: label 1

Exercise: Assay result, entry `CC1(C)CC(O)CC(C)(C)N1[O]` — outcome?
Solution: label 0

Exercise: So what was the verdict on `CCCCOc1ccc(C(=O)Nc2ccc(F)cc2F)cc1` in this test?
Solution: label 0

Exercise: Give the logged outcome of this assay for the following compound: `CCCCCCCCCCCCCCCC(=O)OC[C@@H](NC(=O)C(Cl)Cl)[C@H](O)c1ccc([N+](=O)[O-])cc1`
Solution: label 0

Exercise: Any idea what this test logged for `O=C(O)CCCCCC(=O)NN=C1CCCC1` ?
Solution: label 0

Exercise: I'd appreciate the recorded outcome for `NC(=O)c1cccc(-c2cccc(OC(=O)NC3CCCCC3)c2)c1` from this test.
Solution: label 0

* * *

Measurement description: Quantitative High-Throughput drug screen in 47 multiple myeloma cell lines against the NCATS MIPE library collection: Karpas620_DSMZ cell viability assay (AID 1918959); also: nearly all actives have a fitted effect of over 30% in size
Condition notes: Karpas620 myeloma viability, CellTiter-Glo ATP luminescence, 48 h; series mostly up to 45.8 µM
Records with an inconclusive call do not appear. Active and inactive are the calls of the source. Calls come from the whole dose curve; as a rule, active = well fitted cell-killing curve with a large enough effect; inconclusive = small, poorly fitted or top-dose-only effect, or effect the other way; inactive = no such curve, though single readings can be large or run the other way. Residues, ends and D or L forms follow the SMILES beside them. *: point of attachment. Cbz = O=C(OCc1ccccc1)*
Classes to choose from: active, inactive

Exercise: Outcome? `C[C@H](NC(=O)[C@@H](O)c1cc(F)cc(F)c1)C(=O)N[C@@H]1C(=O)N(C)c2ccccc2-c2ccccc21`
Solution: inactive

Exercise: Name the outcome recorded for `CC(C)NC[C@@H](C(=O)N1CCN(c2ncnc3c2[C@H](C)C[C@H]3O)CC1)c1ccc(Cl)cc1` in the assay.
Solution: active

Exercise: How was `Cc1[nH]c(C=C2C(=O)Nc3ccccc32)c(C)c1CCC(=O)O` classified in this test?
Solution: active

Exercise: For `CCc1nc(-c2cccc(C)c2)c(-c2ccnc(NC(=O)c3ccccc3)c2)s1` , which call appears in the assay record?
Solution: active

Exercise: Lab log entry: `CC(=O)[C@]1(O)Cc2c(O)c3c(c(O)c2[C@@H](O[C@H]2C[C@H](N)[C@@H](O)[C@H](C)O2)C1)C(=O)c1ccccc1C3=O` — outcome as called in the assay?
Solution: active

Exercise: Could you please tell me the result logged for `NC(=O)Nc1sc(-c2ccc(F)cc2)cc1C(N)=O` in this assay?
Solution: active

Exercise: What classification did `COc1ccc(S(=O)(=O)Nc2cc(-c3c(O)ccc4ccccc34)c(O)c3ccccc23)cc1` end up with in this test?
Solution: active

Exercise: In this assay, the call recorded for `C[C@@H]1[C@H](C)CC[C@]2(C(=O)O)CC[C@]3(C)C(=CC[C@@H]4[C@@]5(C)C[C@@H](O)[C@H](O)[C@@](C)(CO)[C@H]5CC[C@]43C)[C@@H]12` was what?
Solution: inactive

Exercise: Outcome logged for Cc1noc(-c2ccc(CSCCC(=O)O)cc2)c1NC(=O)OC(C)c1ccccc1Cl (stereo not drawn) in this assay:
Solution: inactive

Exercise: Recorded test outcome, item `Cc1ncc(-c2ccnc(Nc3ccc(S(C)(=O)=O)cc3)n2)n1C(C)C`
Solution: active

Exercise: What call does the record list for `CC1(C)CC(O)CC(C)(C)N1[O]` ?
Solution: inactive

Exercise: What classification did `Cc1cn([C@@H]2O[C@H](CO)[C@@H](O)[C@H]2F)c(=O)[nH]c1=O` end up with in this test?
Solution: inactive

Exercise: How did this test come out for `N#Cc1cc(NC(=O)Nc2nnc(-c3ccncc3)s2)ccc1-c1cn[nH]c1` ?
Solution: inactive

Exercise: # lookup: test call for `CC(C)(N)c1ccc(-c2nc3ccccc3nc2-c2ccccc2)cc1`
Solution: active

Exercise: Lab log entry: CC(N[C@H]1CCCC[C@H]1NC(=O)c1ccc(Cl)cc1)c1cccc2ccccc12 (stereo partly drawn) — outcome as called in the assay?
Solution: active

Exercise: Check the results log: what was the call for CC(C)C[C@@H](C=O)NC(=O)[C@H](CC(C)C)NC(=O)[C@H](CC(C)C)NC(=O)OCc1ccccc1 (Cbz-Leu-Leu-Leu-aldehyde) ?
Solution: active

Exercise: Per the assay record, what outcome was assigned to `CON=C(C(=O)N[C@@H]1C(=O)N2C(C(=O)O)=C(CSC(=O)c3ccco3)CS[C@H]12)c1csc(N)n1` ?
Solution: inactive

Exercise: Any idea what this test logged for `COC[C@H](NC(=O)c1cnc(C)s1)C(=O)N[C@@H](COC)C(=O)N[C@@H](Cc1ccccc1)C(=O)[C@@]1(C)CO1` ?
Solution: active

* * *

Measurement description: Quantitative High-Throughput drug screen in 47 multiple myeloma cell lines against the NCATS MIPE library collection: KMS12BM_JCRB cell viability assay (AID 1918971); also: nearly all actives have a fitted effect of over 35% in size
Condition notes: KMS12BM myeloma viability, CellTiter-Glo ATP, 48 h; series mostly up to 45.8 µM
Inconclusive results are not listed. Calls of active or inactive are those of the source. Calls come from the whole dose curve; as a rule, active = well fitted cell-killing curve with a large enough effect; inconclusive = small, poorly fitted or top-dose-only effect, or effect the other way; inactive = no such curve, though single readings can be large or run the other way. Starred links: 1 amine or outer side, 2 acyl side, 3 side chain; linkers in the order of their positions; H or OH if unused. Positions of bridges follow the written chain, without caps; N, C: chain ends. Non-standard residues stand in square brackets, D forms with d. Residues, ends and D or L forms follow the SMILES beside them. Chains are numbered I, II in the order given. *: point of attachment. Actinocin(9to1) = Cc1c2oc3c(C)ccc(C(=O)[*:1])c3nc-2c(C(=O)[*:2])c(N)c1=O; NMeV = CN[CH](C(=O)O)C(C)C; Cbz = O=C(OCc1ccccc1)*; Sar = CNCC(=O)O
Outcome field: choose from yes (1) for active, no (0) for inactive

Exercise: Could you kindly confirm the outcome this assay logged for C=CC(=O)Nc1cccc(Nc2nc(NC3CCC(N(C)C)CC3)nc3c2ncn3C(C)C)c1 (stereo not drawn) ?
Solution: yes (1)

Exercise: Dear all, I need the recorded test outcome for `c1cc(CN2CCCNCCNCCCNCC2)ccc1CN1CCCNCCNCCCNCC1` , thank you.
Solution: no (0)

Exercise: Would you mind telling me which call this test gave `Nc1nc2c(c(=O)[nH]1)N(C=O)[C@H](CNc1ccc(C(=O)N[C@@H](CCC(=O)O)C(=O)O)cc1)CN2` ?
Solution: no (0)

Exercise: Dear colleague, could you share the recorded outcome for CC(C)C[C@@H](C=O)NC(=O)[C@H](CC(C)C)NC(=O)[C@H](CC(C)C)NC(=O)OCc1ccccc1 (Cbz-Leu-Leu-Leu-aldehyde) when you have a moment?
Solution: yes (1)

Exercise: Call for entry `CCCc1nc(C(C)(C)O)c(C(=O)O)n1Cc1ccc(-c2ccccc2-c2nn[nH]n2)cc1` :
Solution: no (0)

Exercise: What did the test return for `O=C(Nc1cccc(Nc2ncc(Br)c(NCCc3cnc[nH]3)n2)c1)N1CCCC1` ?
Solution: yes (1)

Exercise: Look up the recorded call for `c1cc(N[C@@H]2CCNC2)nc(-c2cnc3ccc(-c4cn[nH]c4)cn23)c1` in this test.
Solution: yes (1)

Exercise: In this assay, the call recorded for `CCOC(=O)N1CCN([N+]([O-])=NOc2ccc([N+](=O)[O-])cc2[N+](=O)[O-])CC1` was what?
Solution: yes (1)

Exercise: // param item: `COc1cc2c(Nc3ccc(Cl)c(Cl)c3F)ncnc2cc1OCC1C[C@@H]2CN(C)C[C@H]2C1` ; yields the recorded call
Solution: yes (1)

Exercise: Any idea what this test logged for `CC(C)N1[N]C(=C2C=c3cc(O)ccc3=N2)c2c(N)ncnc21` ?
Solution: yes (1)

Exercise: Answer briefly: the call reported for Nc1ccn(C2CO[C@H](CO)O2)c(=O)n1 (stereo partly drawn) in this assay.
Solution: yes (1)

Exercise: Could you please tell me the result logged for `CC(C=CC=C(C)C=CC1=C(C)CCCC1(C)C)=CC=CC=C(C)C=CC=C(C)C=CC1=C(C)CCCC1(C)C` in this assay?
Solution: no (0)

Exercise: Which outcome was assigned to `C[C@@]12C(=O)OC(=O)[C@@]1(C)C1CCC2O1` in this test?
Solution: yes (1)

Exercise: Which outcome was entered for the compound `O=C(O)c1ccc(Nc2ncc3c(n2)-c2ccc(Cl)cc2C(c2c(F)cccc2F)=NC3)cc1` in this test?
Solution: yes (1)

Exercise: Please indicate how the test categorized `O=C(C[C@@H]1CC=CCCC(=O)O[C@H](c2ccccc2)CNC1=O)NCc1ccc(Cl)cc1` .
Solution: no (0)

Exercise: Per the records of this test, what outcome belongs to CC(=O)SCC(Cc1ccccc1)C(=O)NCC(=O)OCc1ccccc1 (stereo not drawn) ?
Solution: yes (1)

Exercise: Tell me the assay call for `COc1cccc2c1C(=O)c1c(O)c3c(c(O)c1C2=O)C[C@@](O)(C(=O)CO)C[C@@H]3O[C@H]1C[C@H](N)[C@@H](O)[C@H](C)O1` please.
Solution: yes (1)

Exercise: Returns: the outcome recorded for `CC(C=CC(=O)NO)=C[C@@H](C)C(=O)c1ccc(N(C)C)cc1` in this assay.
Solution: yes (1)

Exercise: # outcome recorded in this test, key = `CNC(=O)Nc1ccc(-c2nc(N3CC4CCC(C3)O4)c3cnn(C4CCC5(CC4)OCCO5)c3n2)cc1`
Solution: yes (1)

Exercise: Can you look up the reported call for `C[N+](C)([O-])CCNc1ccc(NCC[N+](C)(C)[O-])c2c1C(=O)c1c(O)ccc(O)c1C2=O` for me?
Solution: yes (1)

Exercise: What did this assay record as the result for `CN[C@H]1[C@@H](O)[C@@H]2O[C@@H]3O[C@H](C)CC(=O)[C@]3(O)O[C@@H]2[C@@H](NC)[C@H]1O` ?
Solution: yes (1)

Exercise: What was the test verdict on `CCOC(=O)[C@H](CCc1ccccc1)N[C@@H](C)C(=O)N1[C@@H](C(=O)O)C[C@H]2CCC[C@@H]21` ?
Solution: yes (1)

Exercise: Recorded test call requested for `C=CC(=O)Nc1cc(NC(=O)c2ccc(C)c(NC(=O)c3ccno3)c2)cc(C(F)(F)F)c1`
Solution: yes (1)

Exercise: # fetch the recorded call for Cc1c2oc3c(C)ccc(C(=O)NC4C(=O)NC(C(C)C)C(=O)N5CCCC5C(=O)N(C)CC(=O)N(C)C(C(C)C)C(=O)OC4C)c3nc-2c(C(=O)NC2C(=O)NC(C(C)C)C(=O)N3CCCC3C(=O)N(C)CC(=O)N(C)C(C(C)C)C(=O)OC2C)c(N)c1=O (stereo not drawn) (I: TVP[Sar][NMeV] / II: TVP[Sar][NMeV]; ester I:1-I:C, II:1-II:C; linker I:N-II:N via Actinocin(9to1); configuration not given here) here
Solution: no (0)

Exercise: Name the outcome recorded for C[C@@H]1CC[C@@]2(OC1)OC1CC3C4CC=C5CC(O)CCC5(C)C4CCC3(C)C1[C@@H]2C (stereo partly drawn) in the assay.
Solution: no (0)

Exercise: What did the test return for `N#CC(=C(N)Sc1ccc(N)cc1)c1ccccc1C(F)(F)F` ?
Solution: yes (1)

Exercise: Hi, sorry to bother you, what did the test record for `Cc1ccc([N+](=O)[O-])cc1S(=O)(=O)N(C)N=Cc1cnc2ccc(Br)cn12` ?
Solution: yes (1)

Exercise: Field: outcome | Entry: `Cc1coc2c1C(=O)C(=O)c1c-2ccc2c(C)cccc12`
Solution: yes (1)

Exercise: Dear all, I need the recorded test outcome for `O=C(CN1C(=O)C2(CCCC2)NC[C@H]1c1cc(F)cc(F)c1)Nc1ccc2c(c1)C[C@@]1(C2)C(=O)Nc2ncccc21` , thank you.
Solution: no (0)

Exercise: // outcome(item) with item = `O=C(NC1CC1)c1cccc(-c2ccc3c(NC(=O)C4CC4)n[nH]c3c2)c1`
Solution: yes (1)

Exercise: Per the records of this test, what outcome belongs to CCCCCCCCCCCC(CC1OC(=O)C1CCCCCC)OC(=O)C(CC(C)C)NC=O (stereo not drawn) ?
Solution: yes (1)

Exercise: What is the recorded call for this compound in the test? `CCCNS(=O)(=O)Nc1ncnc(OCCOc2ncc(Br)cn2)c1-c1ccc(Br)cc1`
Solution: no (0)

Exercise: So what was the verdict on `Oc1ccc([C@@H]2Oc3ccc(O)cc3[C@@H]3CCC[C@@H]32)cc1` in this test?
Solution: yes (1)
